Below, IC50 values reported for Epidermal growth factor receptor (Homo sapiens, UniProt P00533) across several publications.
Provide only the numeric value, understood in nM.

Here's what some known entries look like.
CCc1cc(Nc2ncc(Br)c(Nc3ccc(-c4cnn(C)c4)c(C)c3P(C)(C)=O)n2)c(OC)cc1N1CCC(N2CCN(C)CC2)CC1: 9.9
Fc1cccc(Nc2ncnc3sc4c(c23)CCCC4)c1: 12.4

Pending compound:
QUERY: Epidermal growth factor receptor (Homo sapiens, UniProt P00533) / IC50 / "COc1ccc(Nc2nc(-c3ccc4c(CN5CC(O)C5)c[nH]c4c3)cn3ccnc23)cc1OC" : value?
RESULT: 8000
